meta.source: PubChem BioAssay (NCI)

Assay: NCI Yeast Anticancer Drug Screen. Data for the bub3 strain (AID 167)
Conditions: S. cerevisiae bub3 mutant strain, at 3.7 µM, active compounds read high
Compounds without any hit were thinned out: in the full panel of roughly 79,000, 15% have a hit. Active and inactive are the calls of the source. No stated cut-off is given here; in the data, active means growth inhibition above about 70%; inactive means the rest.
Property name: growth inhibition

Below, 3 compounds whose answers are already recorded.
In [3]: df
Out[3]:
                                   compound         reading
0              c1ccc2c(c1)c1ncccc1c1nccnc21  -2% (inactive)
1  [N-]=[N+]=NC1=C(c2ccccn2)C(=O)c2cccc3cccc1c23   4% (inactive)
2  O=C(O)c1ccccc1-c1ccccc1C(=O)Nc1ccc2c(c1)Cc1ccccc1-2   7% (inactive)

Here's the next entry for you.
Form: compound = CC(=O)OCC(=O)C1(O)CCC2C3CCC4CCCCC4(C)C3CCC21C (configuration not stated) ; growth inhibition = -13% (inactive)

----------
Assay: NCI Yeast Anticancer Drug Screen. Data for the rad52 strain (AID 147);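 further: 0% = growth of vehicle-treated control cultures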
Settings: S. cerevisiae rad52 mutant growth inhibition; at 100.0 µM; active compounds read high
Compounds without any hit were thinned out: in the full panel of roughly 79,000, 15% have a hit.
Lab note: class by growth inhibition, see Low = under 50%, Mid = from 50% up to 90%, High = 90% and over

A selection of reference data follows.
>>> df
                                   compound  classification
0  Cc1cc2c(cc1C(=O)CCC(=O)O)CC1(C2)Cc2cc(C)c(C(=O)CCC(=O)O)cc2C1             Low
1  Cc1c(C(=O)C(=O)c2ccccc2)c(C)c(C(=O)C(=O)c2ccccc2)c(C)c1C(=O)C(=O)c1ccccc1             Low
2  COc1ccc(Br)c(C(=O)Sc2nnnn2-c2cccc(Cl)c2)c1            High
3         O=C(Nc1ccccc1)OCCc1ccc(Cl)c(Cl)c1             Mid

## Input Input CC1=C(SCCO)C(=O)c2ccccc2C1=O ; output its category
## Output Mid

## Input Input CCC(=O)Oc1c(Cl)cc(Cl)c2ccccc12 ; output its category
## Output Mid

## Input Input FC(F)(F)c1nc2nc(Cl)c(Cl)nc2n1CCCN1CCOCC1 ; output its category
## Output Low

## Input Input CC(C)/C(Cl)=N\OC(=O)Nc1cccc(Cl)c1 ; output its category
## Output Low

## Input Input CNC(=O)OCc1c(COC(=O)NC)c(-c2ccc(Cl)c(Cl)c2)n2c1CCC2 ; output its category
## Output High

## Input Input COc1ccc2nc3cccc([N+](=O)[O-])c3c(NCCN(CCO)CCO)c2c1 ; output its category
## Output High

## Input Input CN(CCc1ccccn1)c1ccc2c(c1)Cc1ccccc1-2 ; output its category
## Output Mid

## Input Input Cn1c(N)nc(-c2ccc(Cl)cc2)c1SSc1c(-c2ccc(Cl)cc2)nc(N)n1C ; output its category
## Output High

## Input Input O=C1Nc2ccc(Cl)c(I)c2C1=O ; output its category
## Output Mid

## Input Input CC(C)NC(=O)OCc1c(COC(=O)NC(C)C)c(-c2ccc(Cl)c(Cl)c2)n2c1CCC2 ; output its category
## Output Mid

## Input Input COC(=O)c1cc(-c2ccc(C)cc2)[nH]c(=O)c1C#N ; output its category
## Output Low

## Input Input O=C(NNc1ccnc2cc(Cl)ccc12)/C(=C\c1ccccc1Cl)NC(=O)c1ccccc1 ; output its category
## Output Low

## Input Input O=C(OCC=C1CCCC1)c1cc([N+](=O)[O-])cc([N+](=O)[O-])c1 ; output its category
## Output High

## Input Input CC(=O)Nc1ccc2c(c1)C(=Nc1ccc(C(=O)O)cc1)c1ccccc1-2 ; output its category
## Output High

## Input Input CCCCCCCCCCCC1=C(O)C(=O)C=C(O)C1=O ; output its category
## Output High

## Input Input NNc1c(F)c(F)cc(F)c1F ; output its category
## Output Low

## Input Input Cc1c(C2=C(Br)C(=O)N(C)C2=O)c(=O)n(C)c(=O)n1C ; output its category
## Output Mid

----------
Assay: NCI Yeast Anticancer Drug Screen. Data for the rad50 strain (AID 155);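 further: 0% = growth of vehicle-only cultures of the same strain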
Conditions: S. cerevisiae rad50 strain growth inhibition; at 1.2 µM; active compounds read high
The panel holds about 79,000 compounds, 15% with a hit somewhere; the sample as a whole holds those more often.
Reported growth inhibition values are given for each entry in this list.
Provide the reading as a plain figure in %.

Below, 6 molecules whose answers are already recorded.
                                   molecule  reading
0  Nc1ccn(C2OC(CO)C3[O][Sn]([c]4ccccc4)([c]4ccccc4)[O]C32)c(=O)n1 (stereo unspecified)        4
1  COC(=O)C1=C(C(=O)OC)C2(C)C=CC1O2 (stereo unspecified)      -15
2  O=C(NNc1ccnc2cc(Cl)ccc12)/C(=C\c1ccccc1Cl)NC(=O)c1ccccc1       -1
3         OC(c1ccc(F)cc1)(c1ccc(F)cc1)C1CC1      -31
4  CN(C)CCn1c2c3ccccc3ccc2c2oc(=O)c3ccccc3c21       21
5  c1ccc2c(c1)-c1nc3ccccc3cc1C2N1CCOCC1 (stereo unspecified)        0

Form: molecule = COC1=CC(=O)C(C2(OC(C)C)OC(=O)C(Cl)=C2Cl)=CC1=O (stereo unspecified) ; growth inhibition = 1

Form: molecule = CC(CC(C)(C)[N+](C)(C)C)[N+](C)(C)C (stereo unspecified) ; growth inhibition = 1

Form: molecule = O=C1OC(=O)C2CCCC3CCCC1C32 (stereo unspecified) ; growth inhibition = 17

Form: molecule = Cc1cc(S(=O)(=O)/N=C(/NN)NNc2cccc(C(F)(F)F)n2)c(S)cc1Cl ; growth inhibition = 0

Form: molecule = O=C1Nc2ccccc2/C1=C/COc1ccccc1 ; growth inhibition = 2

Form: molecule = NC(=O)NN=C(CS)CS ; growth inhibition = 1

Form: molecule = Cc1cc(I)ccc1N ; growth inhibition = -31

----------
Test: NCI Yeast Anticancer Drug Screen. Data for the rad18 strain (AID 177)
Details: S. cerevisiae rad18 mutant growth inhibition; at 100.0 µM; active compounds read high
About 79,000 compounds went through this panel and 15% of them were active in at least one assay; those are over-represented in the sample as a whole.
Property name: growth inhibition (%)
Provide the reading as a plain figure in %.

Below, 4 molecules whose answers are already recorded.
Molecule	growth inhibition, %
COc1ccccc1N=NC(C(=O)c1ccccc1)C(=O)c1ccccc1	98
COC1=CC(=O)C(C2(OC(C)C)OC(=O)C(Cl)=C2Cl)=CC1=O (centres undefined)	99
CN(C)c1ccc(C(C#N)=C(C#N)C#N)cc1	39
c1ccc2c(c1)-c1nc3ccccc3cc1C2N1CCOCC1 (centres undefined)	6

Form: molecule = O=C1C=CC(=O)c2c(O)c(Nc3ccc(OC(F)(F)F)cc3)c(Cl)c(O)c21 ; growth inhibition = 92

Form: molecule = COC(=O)c1ccc(NCC2=CC(=O)C=CC2=O)cc1O ; growth inhibition = 95

Form: molecule = CNC(=O)OCc1c(COC(=O)NC)c(-c2ccc(-c3ccccc3)cc2)n(C)c1C ; growth inhibition = 52

Form: molecule = CC1(Cl)CC(O)C2(CC1Br)C1(C)OC1C1OC1(Br)C2(C)C (centres undefined) ; growth inhibition = 98

Form: molecule = CC(C)/C(Cl)=N\OC(=O)Nc1ccc(F)cc1 ; growth inhibition = 56

Form: molecule = Oc1ccc(NCn2c(=S)sc3ccccc32)cc1 ; growth inhibition = 96

Form: molecule = CCCCOC(=O)N[C@H]1CCc2cc(OC)c(OC)c(OC)c2-c2ccc(SC)c(=O)cc21 ; growth inhibition = 80

Form: molecule = O=C(c1ccc(Cl)cc1Cl)C(Cl)Cl ; growth inhibition = 98

Form: molecule = CCCCN1C(=O)N(c2ccc(OCC)cc2)C2N(CCCC)C1C(C)(C)C2(C)C (centres undefined) ; growth inhibition = 93

Form: molecule = O=C(Cc1csc2[n+]1C(=O)/C(=C/c1ccc(Cl)cc1)S2)Nc1ccccc1 ; growth inhibition = 69

----------
Reported growth inhibition values are given for each entry in this list.
Assay: NCI Yeast Anticancer Drug Screen. Data for the mec2-1 strain (AID 157)
Settings: S. cerevisiae mec2-1 strain, at 50.0 µM, active compounds read high
Compounds without any hit were thinned out: in the full panel of roughly 79,000, 15% have a hit.
Provide the reading as a plain figure in %.

                            compound      property_name  reading
0   NC(N)=N/N=C\c1c2ccccc2cc2ccccc12  growth inhibition     36.9
1  Clc1cccc(C(Nc2nncs2)Nc2nncs2)c1Cl  growth inhibition     20.7

Here's the next entry for you.
Form: compound = O=C1C2C(C(=O)N1c1ccc(OCc3ccccc3)cc1)C1c3ccccc3C2C2CCCCN21 (stereo unspecified) ; growth inhibition = -8.75
